The values you see were collected from ChEMBL document CHEMBL4382276.

Listing of entries alongside the reported Ratio.
system: Cricket paralysis virus; assay: Induction of read through activity at cricket paralysis virus-internal ribosome entry site premature termination codon UGA assessed as ratio of plateau octapeptide to FKVRQ-tRNAGln measured after 20 mins in presence of Typ-tRNA, Leu-tRNA and [35S]-Met-tRNA by co-sedimentation assay

COc1cccc2c1C(=O)c1c(O)c3c(c(O)c1C2=O)C[C@@](O)(C(=O)CO)C[C@@H]3O[C@H]1C[C@H](N)[C@H](O)[C@H](C)O1    0.1 to 0.3
NCCC[C@H](N)CC(=O)NCCC[C@H](N)CC(=O)NCCC[C@H](N)CC(=O)N[C@@H]1[C@H](O)[C@@H](OC(N)=O)[C@@H](CO)O[C@H]1NC1=N[C@@H]2C(=O)NC[C@@H](O)[C@H]2N1    0.1 to 0.3
CN[C@@H]1[C@@H](O)[C@@H](O[C@@H]2[C@@H](O)[C@H](O[C@H]3O[C@H](CN)[C@@H](O)[C@H](O)[C@H]3O)[C@@H](N)C[C@H]2N)OC[C@]1(C)O    0.1 to 0.3
COc1cccc(-n2c(SCC(=O)Nc3ccc(F)cc3)nnc2-c2ccccn2)c1    0.1 to 0.16
CN(CC(=O)O)NC(=O)C[C@H](N)C[C@@H](O)CN    0.1 to 0.3
NCCC[C@H](N)CC(=O)NCCC[C@H](N)CC(=O)NCCC[C@H](N)CC(=O)NCCC[C@H](N)CC(=O)NCCC[C@H](N)CC(=O)N[C@@H]1[C@H](O)[C@@H](OC(N)=O)[C@@H](CO)O[C@H]1NC1=N[C@@H]2C(=O)NC[C@@H](O)[C@H]2N1    0.1 to 0.3

Which Ratio value belongs to CN[C@@H]1[C@@H](O)[C@@H](O[C@@H]2[C@@H](O)[C@H](O[C@H]3O[C@H](CO)[C@@H](O)[C@H](O)[C@H]3N)[C@@H](N)C[C@H]2N)OC[C@]1(C)O ? 0.1 to 0.3

Follow-up entry: O=C(O)c1cccc(-c2noc(-c3ccccc3F)n2)c1 0.1 to 0.16

Follow-up entry: NCCC[C@H](N)CC(=O)N[C@@H]1[C@H](O)[C@@H](OC(N)=O)[C@@H](CO)O[C@H]1NC1=N[C@@H]2C(=O)NC[C@@H](O)[C@H]2N1 0.1 to 0.3

Follow-up entry: N=C1NC(=O)/C(=C/c2ccc(-c3ccccc3[N+](=O)[O-])o2)S1 0.1 to 0.16

Follow-up entry: C[C@@H](O)[C@H]1O[C@H](O[C@H]2[C@H](O[C@@H]3O[C@H](CN)[C@@H](O)[C@H]3O)[C@@H](O)[C@H](NC(=O)[C@@H](O)CCN)C[C@@H]2N)[C@H](N)[C@@H](O)[C@@H]1O 0.1 to 0.3

Follow-up entry: NCCC[C@H](N)CC(=O)NCCC[C@H](N)CC(=O)NCCC[C@H](N)CC(=O)NCCC[C@H](N)CC(=O)N[C@@H]1[C@H](O)[C@@H](OC(N)=O)[C@@H](CO)O[C@H]1NC1=N[C@@H]2C(=O)NC[C@@H](O)[C@H]2N1 0.1 to 0.3
